# Tested on: Neisseria meningitidis
# ASSAY: Antimicrobial activity against Neisseria meningitidis infected in mouse RAW264.7 cells assessed as reduction in bacteria-induced cytotoxicity at 50 uM after 24 hrs by lactate dehydrogenase release assay relative to control
# Format: functional
# Parameters: scale not given: the % may be the effect or the level left
ASSAY METRIC: Activity (%)

1. O=C(O[C@H](Cc1ccccc1)C(=O)NCc1cccnc1)[C@H]1CCCCN1S(=O)(=O)c1ccccc1 = 21
2. O=C(NCc1cccnc1)[C@@H](NC(=O)[C@@H]1CCCCN1S(=O)(=O)Cc1ccccc1)c1ccc(F)cc1 = 22.6
3. CC[C@H](C)[C@H](OC(=O)C1CCCCN1S(=O)(=O)Cc1ccccc1)C(=O)NCc1cccnc1 (mixture of isomers) = 58
4. CC(C)C[C@H](OC(=O)[C@@H]1CCCCN1S(=O)(=O)Cc1ccccc1)C(=O)NCc1cccnc1 = 13
5. O=C(NCc1cccnc1)[C@@H](CCc1ccccc1)NC(=O)[C@@H]1CCCCN1S(=O)(=O)Cc1ccccc1 = 69.9
6. O=C(NCc1cccnc1)[C@H](Cc1ccccc1)OC(=O)[C@@H]1CCCCN1S(=O)(=O)c1ccccc1 = 41.5
7. O=C(NCc1cccnc1)C(CCc1ccccc1)COC(=O)[C@H]1CCCCN1S(=O)(=O)Cc1ccccc1 (mixture of isomers) = 21.2
8. O=C(NCCOC(=O)[C@@H]1CCCCN1S(=O)(=O)Cc1ccccc1)c1cccnc1 = 41.1

----------
# System: Neisseria meningitidis
# ASSAY: Inhibition of Neisseria meningitidis Mip PPIase activity assessed as remaining activity using Suc-ALPF-pNA substrate measured at 400 nM by protease coupled assay relative to control
The source made the active and inactive calls. The calls are words filed in the database; no cut-off is given here.
ASSAY METRIC: Activity

1. O=C(NCc1cccnc1)[C@@H](NC(=O)[C@@H]1CCCCN1S(=O)(=O)Cc1ccccc1)c1ccc(F)cc1 = 63.5%
2. O=C(NCCOC(=O)[C@@H]1CCCCN1S(=O)(=O)Cc1ccccc1)c1cccnc1 = 52.2%
3. O=C(O[C@@H](Cc1ccccc1)C(=O)NCc1cccnc1)C1CCCCN1S(=O)(=O)Cc1ccccc1 (mixture of isomers) = 14%
4. CC(C)[C@H](OC(=O)C1CCCCN1S(=O)(=O)Cc1ccccc1)C(=O)NCc1cccnc1 (mixture of isomers) = 25.2%
5. CC(C)C[C@H](NC(=O)[C@@H]1CCCCN1S(=O)(=O)Cc1ccc(F)cc1)C(=O)NCc1cccnc1 = 23.6%
6. O=C(NCc1ccc[n+]([O-])c1)[C@H](Cc1ccc(F)cc1)NC(=O)[C@@H]1CCCCN1S(=O)(=O)Cc1ccc(F)cc1 = 49.4%
7. O=C(NCc1cccnc1)[C@@H](CCc1ccccc1)NC(=O)[C@@H]1CCCCN1S(=O)(=O)Cc1ccccc1 = 83.7%
8. O=C(N[C@@H](Cc1ccccc1)C(=O)NCc1ccc[n+]([O-])c1)C1CCCCN1S(=O)(=O)Cc1ccccc1 (mixture of isomers) = 66.7%
9. O=C(NCc1cccnc1)C(CCc1ccccc1)COC(=O)[C@H]1CCCCN1S(=O)(=O)Cc1ccccc1 (mixture of isomers) = 93.7%
10. COCCOc1cc(OCCOC)cc(C(=O)NCCOC(=O)[C@@H]2CCCCN2S(=O)(=O)Cc2ccccc2)c1 = 85%
11. O=C(NCc1cccnc1)C(CCc1cccnc1)OC(=O)[C@@H]1CCCCN1S(=O)(=O)c1ccccc1 (mixture of isomers) = 82%
12. CC(C)C[C@H](OC(=O)C1CCCCN1S(=O)(=O)Cc1ccccc1)C(=O)NCc1cccnc1 (mixture of isomers) = 22.1%
13. O=C(NCc1cccnc1)[C@H](CCc1ccccc1)COC(=O)[C@@H]1CCCCN1S(=O)(=O)Cc1ccccc1 = 83.5%
14. O=C(NCc1cccnc1)[C@H](Cc1ccccc1)NC(=O)[C@@H]1CCCCN1S(=O)(=O)Cc1ccccc1 = 27.3%
15. O=C(NCc1cccnc1)[C@@H](CCc1ccccc1)COC(=O)[C@@H]1CCCCN1S(=O)(=O)Cc1ccccc1 = 54%
16. O=C(NCc1cccnc1)[C@H](Cc1ccc(F)cc1)NC(=O)[C@@H]1CCCCN1S(=O)(=O)Cc1ccc(F)cc1 = 11.5%
17. O=C(NCc1cccnc1)[C@@H](Cc1ccccc1)OC(=O)[C@@H]1CCCCN1S(=O)(=O)c1ccccc1 = 51.1%
18. O=C(NCc1cccnc1)[C@H](Cc1ccccc1)OC(=O)[C@@H]1CCCCN1S(=O)(=O)c1ccccc1 = 10%
19. CC(C)C[C@H](NC(=O)[C@@H]1CCCCN1S(=O)(=O)Cc1ccc(F)cc1)C(=O)NCc1ccc[n+]([O-])c1 = 44.4%
20. O=C(O[C@H](Cc1ccccc1)C(=O)NCc1cccnc1)[C@H]1CCCCN1S(=O)(=O)c1ccccc1 = 51.3%
21. O=C(NCc1cccnc1)[C@@H](Cc1ccccc1)NC(=O)[C@@H]1CCCCN1S(=O)(=O)Cc1ccccc1 = 87.9%
22. C#CCOc1ccc(C[C@H](NC(=O)[C@@H]2CCCCN2S(=O)(=O)Cc2ccc(F)cc2)C(=O)NCc2cccnc2)cc1 = 12.3%
23. CC[C@H](C)[C@H](OC(=O)C1CCCCN1S(=O)(=O)Cc1ccccc1)C(=O)NCc1cccnc1 (mixture of isomers) = 73.3%
24. O=C(NCc1cccnc1)[C@H](Cc1ccccc1)OC(=O)[C@H]1CCCCN1S(=O)(=O)c1ccccc1 = 27.2%
25. O=C(NCc1cccnc1)[C@H](CCc1ccccc1)NC(=O)[C@@H]1CCCCN1S(=O)(=O)Cc1ccccc1 = 44.8%
26. O=C(NCc1cccnc1)[C@@H](NC(=O)[C@@H]1CCCCN1S(=O)(=O)Cc1ccc(F)cc1)c1ccc(F)cc1 = 43.3%
27. C=CCOC(=O)[C@H](Cc1ccc(F)cc1)NC(=O)[C@@H]1CCCCN1S(=O)(=O)Cc1ccc(F)cc1 = inactive
28. CC(C)C[C@@H](OC(=O)[C@@H]1CCCCN1S(=O)(=O)Cc1ccccc1)C(=O)NCc1cccnc1 = inactive
29. CC(C)C[C@H](OC(=O)[C@@H]1CCCCN1S(=O)(=O)Cc1ccccc1)C(=O)NCc1cccnc1 = 35.6%
30. O=C(NCc1cccnc1)C(CCc1ccccc1)COC(=O)[C@@H]1CCCCN1S(=O)(=O)Cc1ccccc1 (mixture of isomers) = 47%
